Origin of values: patent US8399480B2

- ASSAYED_SYSTEM: human β3 adrenergic receptor (Homo sapiens, UniProt P13945)
- Construct: expressed in transfected cells; host or cells: Chinese hamster ovary (CHO) cells, stably transfected
- Sequence (P13945 whole entry): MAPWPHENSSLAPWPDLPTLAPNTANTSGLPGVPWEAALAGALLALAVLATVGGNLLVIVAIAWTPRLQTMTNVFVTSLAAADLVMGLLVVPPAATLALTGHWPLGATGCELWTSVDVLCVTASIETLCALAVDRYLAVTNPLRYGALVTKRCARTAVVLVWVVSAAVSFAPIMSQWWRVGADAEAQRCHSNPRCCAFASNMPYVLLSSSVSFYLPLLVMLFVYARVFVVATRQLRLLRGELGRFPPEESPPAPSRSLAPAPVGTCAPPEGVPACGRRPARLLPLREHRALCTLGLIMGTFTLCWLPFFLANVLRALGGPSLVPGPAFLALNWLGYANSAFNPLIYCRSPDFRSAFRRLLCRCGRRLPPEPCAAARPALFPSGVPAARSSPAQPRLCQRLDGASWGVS
- TEST_NAME: Functional assay: cAMP production (LANCE TR-FRET) in CHO cells stably transfected with cloned β3 adrenergic receptor
- Type: cell-based
- CONDITIONS: Table 7; β3AR-cAMP; read-out: Human β3 Functional
Recorded EC50 by entry
REPORTED_METRIC: EC50

                                   compound  reported_metric  observed_result
0  O=S(=O)(Cc1ccncc1)Nc1ccc(C[C@@H]2CC[C@H]([C@H](O)c3ccccc3)N2)cc1 [Example 250]             EC50   101 to 1000 nM
1  Cn1cnc(S(=O)(=O)Nc2ccc(C[C@@H]3CC[C@H]([C@H](O)c4ccccc4)N3)cc2)c1 [Example 246]             EC50   101 to 1000 nM
2  O=S(=O)(Nc1ccc(C[C@@H]2CC[C@H]([C@H](O)c3ccccc3)N2)cc1)c1cccc2ncccc12 [Example 238]             EC50   101 to 1000 nM
3  O=S(=O)(Cc1cccnc1)Nc1ccc(C[C@@H]2CC[C@H]([C@H](O)c3ccccc3)N2)cc1 [Example 249]             EC50  1000 to 3000 nM

---

- ASSAYED_SYSTEM: human β3 adrenergic receptor (Homo sapiens)
- Construct: expressed in transfected cells; host or cells: Chinese hamster ovary (CHO) cells, stably transfected
- TEST_NAME: Functional assay: cAMP production (LANCE TR-FRET) in CHO cells stably transfected with cloned β3 adrenergic receptor
- Format: cell-based
- CONDITIONS: Table 5; read-out: Human β3 Functional
REPORTED_METRIC: EC50

In [3]: df
Out[3]:
                                    molecule  observed_result
 0  Nc1nc2c(s1)CCCC2C(=O)Nc1ccc(C[C@@H]2CC[C@H]([C@H](O)c3ccccc3)N2)cc1 (single isomer, unassigned) [Example 117]           < 1 nM
 1  O=C(Nc1ccc(C[C@@H]2CC[C@H]([C@H](O)c3ccccc3)N2)cc1)C1CCn2nnnc21 (single isomer, unassigned) [Example 130]       1 to 10 nM
 2  Cc1nc2c(s1)CCC2C(=O)Nc1ccc(C[C@@H]2CC[C@H]([C@H](O)c3ccccc3)N2)cc1 (single isomer, unassigned) [Example 118]       1 to 10 nM
 3  O=C(Nc1ccc(C[C@@H]2CC[C@H]([C@H](O)c3ccccc3)N2)cc1)C1CCc2cccnc21 (single isomer, unassigned) [Example 133]           < 1 nM
 4  O=C(Nc1ccc(C[C@@H]2CC[C@H]([C@H](O)c3ccccc3)N2)cc1)C1CCc2sc(F)nc21 (single isomer, unassigned) [Example 147]           < 1 nM
 5  O=C(Nc1ccc(C[C@@H]2CC[C@H]([C@H](O)c3ccccc3)N2)cc1)C1CCc2sc(F)nc21 (single isomer, unassigned) [Example 146]           < 1 nM
 6  CC(C(=O)Nc1ccc(C[C@@H]2CC[C@H]([C@H](O)c3ccccc3)N2)cc1)n1nccn1 (single isomer, unassigned) [Example 178]       1 to 10 nM
 7  CC(C(=O)Nc1ccc(C[C@@H]2CC[C@H]([C@H](O)c3ccccc3)N2)cc1)c1cnccn1 (single isomer, unassigned) [Example 207]       1 to 10 nM
 8  CC(C(=O)Nc1ccc(CC2CCC(C(O)c3ccccc3)N2)cc1)c1ccn(C)n1 (single isomer, unassigned) [Example 187]       1 to 10 nM
 9  CCC(C(=O)Nc1ccc(C[C@@H]2CC[C@H]([C@H](O)c3ccccc3)N2)cc1)n1cccn1 (single isomer, unassigned) [Example 219]       1 to 10 nM
10  CC(C(=O)Nc1ccc(C[C@@H]2CC[C@H]([C@H](O)c3ccccc3)N2)cc1)n1cnnn1 (single isomer, unassigned) [Example 172]       1 to 10 nM
11  CC(C(=O)Nc1ccc(CC2CCC(C(O)c3ccccc3)N2)cc1)c1ccn(C)n1 (single isomer, unassigned) [Example 186]   101 to 1000 nM
12  Cc1nnc2n1C(C(=O)Nc1ccc(C[C@@H]3CC[C@H]([C@H](O)c4ccccc4)N3)cc1)CC2 (single isomer, unassigned) [Example 126]     11 to 100 nM
13  O=C(Nc1ccc(C[C@@H]2CC[C@H]([C@H](O)c3ccccc3)N2)cc1)C1CCc2cccnc21 (single isomer, unassigned) [Example 132]           < 1 nM
14  Cc1cc(C(C)C(=O)Nc2ccc(C[C@@H]3CC[C@H]([C@H](O)c4ccccc4)N3)cc2)[nH]n1 (single isomer, unassigned) [Example 184]     11 to 100 nM
15  Cc1nc2c(s1)CCCC2C(=O)Nc1ccc(C[C@@H]2CC[C@H]([C@H](O)c3ccccc3)N2)cc1 (single isomer, unassigned) [Example 121]       1 to 10 nM

---

Recorded EC50 by entry
- ASSAYED_SYSTEM: human β3 adrenergic receptor (Homo sapiens, UniProt P13945)
- Construct: expressed in transfected cells; host or cells: Chinese hamster ovary (CHO) cells, stably transfected
- TEST_NAME: Functional assay: cAMP production (LANCE TR-FRET) in CHO cells stably transfected with cloned β3 adrenergic receptor
- Type: cell-based
- CONDITIONS: Table 4; human β3 functional activity; read-out: Human β Binding
REPORTED_METRIC: EC50

>>> df
                                    compound  reported_metric  observed_result
 0  O=C(Cn1nnnc1-c1ccc(F)cc1)Nc1ccc(C[C@@H]2CC[C@H]([C@H](O)c3ccccc3)N2)cc1             EC50     11 to 100 nM
 1  O=C(Cn1ccc(=O)[nH]c1=O)Nc1ccc(C[C@@H]2CC[C@H]([C@H](O)c3ccccc3)N2)cc1             EC50       1 to 10 nM
 2  O=C(Nc1ccc(C[C@@H]2CC[C@H]([C@H](O)c3ccccc3)N2)cc1)c1ccccc1-c1ncc[nH]1             EC50     11 to 100 nM
 3  O=C(Nc1ccc(C[C@@H]2CC[C@H]([C@H](O)c3ccccc3)N2)cc1)c1ccccc1COc1ccccc1             EC50   101 to 1000 nM
 4  Cc1nonc1CC(=O)Nc1ccc(C[C@@H]2CC[C@H]([C@H](O)c3ccccc3)N2)cc1             EC50       1 to 10 nM
 5  O=C(Cc1cccnc1)Nc1ccc(C[C@@H]2CC[C@H]([C@H](O)c3ccccc3)N2)cc1             EC50   101 to 1000 nM
 6  Cc1cn(CC(=O)Nc2ccc(C[C@@H]3CC[C@H]([C@H](O)c4ccccc4)N3)cc2)nn1             EC50       1 to 10 nM
 7  Cn1ncc2c(=O)n(CC(=O)Nc3ccc(C[C@@H]4CC[C@H]([C@H](O)c5ccccc5)N4)cc3)cnc21             EC50       1 to 10 nM
 8  COc1cccc(N2CCCC2C(=O)Nc2ccc(C[C@@H]3CC[C@H]([C@H](O)c4ccccc4)N3)cc2)c1 (stereo partly drawn)             EC50       1 to 10 nM
 9  O=C(Cc1nnc(-c2cscn2)[nH]1)Nc1ccc(C[C@@H]2CC[C@H]([C@H](O)c3ccccc3)N2)cc1             EC50       1 to 10 nM
10  O=C(Nc1ccc(C[C@@H]2CC[C@H]([C@H](O)c3ccccc3)N2)cc1)C1CCCN1c1ccc(Cl)cc1 (stereo partly drawn)             EC50   101 to 1000 nM
11  O=C(Cn1c(=O)[nH]c2ccccc2c1=O)Nc1ccc(C[C@@H]2CC[C@H]([C@H](O)c3ccccc3)N2)cc1             EC50           < 1 nM
12  O=C(Cc1nnc(Cc2ccccc2)[nH]1)Nc1ccc(C[C@@H]2CC[C@H]([C@H](O)c3ccccc3)N2)cc1             EC50     11 to 100 nM
13  O=C(Nc1ccc(C[C@@H]2CC[C@H]([C@H](O)c3ccccc3)N2)cc1)C1CCCN1c1nc2ccccc2s1 (stereo partly drawn)             EC50     11 to 100 nM
14  O=C(Cn1cnnn1)Nc1ccc(C[C@@H]2CC[C@H]([C@H](O)c3ccccc3)N2)cc1             EC50     11 to 100 nM
15  Cc1nc(CC(=O)Nc2ccc(C[C@@H]3CC[C@H]([C@H](O)c4ccccc4)N3)cc2)no1             EC50       1 to 10 nM
16  O=C(CN1CCSC1=O)Nc1ccc(C[C@@H]2CC[C@H]([C@H](O)c3ccccc3)N2)cc1             EC50       1 to 10 nM
17  O=C(Nc1ccc(C[C@@H]2CC[C@H]([C@H](O)c3ccccc3)N2)cc1)c1ccccc1N1CCCC1             EC50   101 to 1000 nM
18  O=C(Cc1ccccc1F)Nc1ccc(C[C@@H]2CC[C@H]([C@H](O)c3ccccc3)N2)cc1             EC50     11 to 100 nM
19  O=C(Cn1cncn1)Nc1ccc(C[C@@H]2CC[C@H]([C@H](O)c3ccccc3)N2)cc1             EC50     11 to 100 nM
20  Cn1nccc1-c1nnc(CC(=O)Nc2ccc(C[C@@H]3CC[C@H]([C@H](O)c4ccccc4)N3)cc2)[nH]1             EC50     11 to 100 nM
21  O=C(Cc1nnc[nH]1)Nc1ccc(C[C@@H]2CC[C@H]([C@H](O)c3ccccc3)N2)cc1             EC50     11 to 100 nM
22  O=C(Nc1ccc(C[C@@H]2CC[C@H]([C@H](O)c3ccccc3)N2)cc1)c1ccccc1CCc1ccccc1             EC50   101 to 1000 nM
23  O=C(Cn1cnc2ccccc2c1=O)Nc1ccc(C[C@@H]2CC[C@H]([C@H](O)c3ccccc3)N2)cc1             EC50       1 to 10 nM
